Assign Activity to each entry below.
Assay: Cytotoxicity against human 2209-23 cells at 20 uM
Format: cell-based
Settings: 2209-23, 20 µM
Numbers only, in %.

Hi, could you look up Activity for each item in my list?
1. C=C[C@]1(CO)O[C@@H](n2ccc(=O)[nH]c2=O)[C@H](O)[C@@H]1O
2. C#C[C@]1(CO)O[C@@H](n2ccc(N)nc2=O)[C@H](O)[C@@H]1O
3. N#C[C@]1(CO)O[C@@H](n2ccc(N)nc2=O)[C@H](O)[C@@H]1O

OUTPUT:
0
0
100

###

Experiment: Cytotoxicity against human 2209-23 cells
Assay type: cell-based
ENDPOINT_NAME: CC50

| COMPOUND_STRUCTURE | CC50 |
| --- | --- |
| Nc1ccn([C@@H]2O[C@H](CO)[C@@H](O)[C@H]2F)c(=O)n1 | > 100 µM |
| C=CC[C@]1(CO)O[C@@H](n2ccc(=O)[nH]c2=O)[C@H](O)[C@@H]1O | 39 µM |
| [N-]=[N+]=N[C@]1(CO)O[C@@H](n2ccc(N)nc2=O)[C@H](O)[C@@H]1O | > 2000 µM |

Consider the additional molecule presented here.
INPUT: Form field: reported CC50 of `C[C@@]1(O)[C@H](O)[C@@H](CO)O[C@H]1n1ccc(N)nc1=O`
OUTPUT: > 33 µM

###

Tested on: Hepatitis C virus
Experiment: Inhibition of HCV 1b BK NS5B570 RNA polymerase
Design: species or system Hepatitis C virus subtype 1b
ENDPOINT_NAME: pIC50
Give bare numbers, as −log10 of the molar value.

Recorded results for 2 molecules are shown here.
| COMPOUND_STRUCTURE | pIC50 |
| --- | --- |
| C#C[C@]1(CO)O[C@@H](n2ccc(N)nc2=O)[C@H](O)[C@@H]1O | 5.57 |
| [N-]=[N+]=N[C@]1(CO)O[C@@H](n2ccc(=O)[nH]c2=O)[C@H](O)[C@@H]1O | 6.52 |

Consider the additional molecule presented here.
INPUT: Form field: reported pIC50 of `[N-]=[N+]=N[C@]1(CO)O[C@@H](n2ccc(N)nc2=O)[C@H](O)[C@@H]1O`
OUTPUT: 6.54

###

Assay: Cytotoxicity against human 2209-23 cells at 20 uM
Assay type: cell-based
Conditions: 2209-23, 20 µM
ENDPOINT_NAME: Activity (%)
One number for each entry, in %.

Recorded results for 9 compounds are shown here.
| COMPOUND | ENDPOINT_NAME | UNIT_DESCRIPTOR | EXPERIMENTAL_VALUE |
| --- | --- | --- | --- |
| [N-]=[N+]=N[C@]1(CO)O[C@@H](n2ccc(N)nc2=O)[C@H](O)[C@@H]1O [4'-AZIDOCYTIDINE] | Activity | % | 13 |
| N#C[C@]1(CO)O[C@@H](n2ccc(=O)[nH]c2=O)[C@H](O)[C@@H]1O | Activity | % | 0 |
| O=c1ccn([C@@H]2OC(CO)(CO)[C@@H](O)[C@H]2O)c(=O)[nH]1 | Activity | % | 0 |
| CCO[C@]1(CO)O[C@@H](n2ccc(N)nc2=O)[C@H](O)[C@@H]1O | Activity | % | 0 |
| CC#C[C@]1(CO)O[C@@H](n2ccc(N)nc2=O)[C@H](O)[C@@H]1O | Activity | % | 0 |
| C=C[C@]1(CO)O[C@@H](n2ccc(N)nc2=O)[C@H](O)[C@@H]1O | Activity | % | 0 |
| C=CC[C@]1(CO)O[C@@H](n2ccc(N)nc2=O)[C@H](O)[C@@H]1O | Activity | % | 0 |
| [N-]=[N+]=N[C@]1(CO)O[C@@H](n2ccc(=O)[nH]c2=O)[C@H](O)[C@@H]1O | Activity | % | 17 |
| Nc1ccn([C@@H]2OC(CO)(CO)[C@@H](O)[C@H]2O)c(=O)n1 | Activity | % | 2 |

INPUT: Form field: reported Activity of `C#C[C@]1(CO)O[C@@H](n2ccc(=O)[nH]c2=O)[C@H](O)[C@@H]1O`
OUTPUT: 0

Provenance of the data: ChEMBL document CHEMBL1139169
